The reported numbers originate from PubChem BioAssay (NCI).

tested on: CCRF-CEM leukemia; assay: NCI tumour cell line growth inhibition, 48 h
Known TGI of a selection of compounds
measured-property: TGI

{"compound": "CC(CN(C)C)C(C#N)(c1ccccc1)c1ccccc1 (configuration not stated)", "target-desc": "CCRF-CEM leukemia", "result": "> 100 µM"}
{"compound": "O=S1(=O)OCCOS(=O)(=O)C1(I)I", "target-desc": "CCRF-CEM leukemia", "result": "35.6 µM"}
{"compound": "COc1ccc(P2(=S)OCCOP(=S)(c3ccc(OC)cc3)S2)cc1 (configuration not stated)", "target-desc": "CCRF-CEM leukemia", "result": "25.1 µM"}
{"compound": "CC(c1ccccc1)N1C(=O)CSC1=S (configuration not stated)", "target-desc": "CCRF-CEM leukemia", "result": "> 100 µM"}
{"compound": "CSc1ccc(C2=NN(c3ccccc3)C(c3ccc(-c4cc(Cl)c(Cl)cc4Cl)o3)C2)cc1 (configuration not stated)", "target-desc": "CCRF-CEM leukemia", "result": "> 100 µM"}
{"compound": "COc1cc(/C=C/[N+](=O)[O-])c([N+](=O)[O-])cc1OC", "target-desc": "CCRF-CEM leukemia", "result": "6.07 µM"}
{"compound": "Oc1ccc(OCCOc2ccc(O)cc2)cc1", "target-desc": "CCRF-CEM leukemia", "result": "> 100 µM"}
{"compound": "Clc1ccc(-c2nc3ccc(Cl)cc3[nH]2)cc1", "target-desc": "CCRF-CEM leukemia", "result": "> 100 µM"}
{"compound": "COc1ccc(NC2C(=O)C3(C)CCC2C3(C)C)cc1 (configuration not stated)", "target-desc": "CCRF-CEM leukemia", "result": "> 100 µM"}
{"compound": "Nc1cnc(Nc2cccc3ccccc23)o1", "target-desc": "CCRF-CEM leukemia", "result": "> 10 µM"}
{"compound": "COc1cccc(-c2nc(-c3cnccn3)n(C3OC(CO)C(O)C3O)n2)c1 (configuration not stated)", "target-desc": "CCRF-CEM leukemia", "result": "> 100 µM"}
{"compound": "Cn1c(=O)c2[nH]c(CCCCc3nc4ccccc4[nH]3)nc2n(C)c1=O", "target-desc": "CCRF-CEM leukemia", "result": "> 100 µM"}
{"compound": "O=c1c(Nc2ccccc2)cn(CCOc2ccccc2)c(=O)n1CCOc1ccccc1", "target-desc": "CCRF-CEM leukemia", "result": "> 100 µM"}
{"compound": "COc1cc2c(cc1OCCCCCN1C(=O)c3cccc4cccc(c34)C1=O)N=C[C@@H]1CCCN1C2=O", "target-desc": "CCRF-CEM leukemia", "result": "0.0677 µM"}
{"compound": "O=c1c(-c2ccccc2)c(SCCN2CCCC2)n(-c2ccccc2)c(=S)n1-c1ccccc1", "target-desc": "CCRF-CEM leukemia", "result": "> 100 µM"}
{"compound": "O=C(c1ccc(Oc2ccccc2)cc1Cl)c1c[nH]c2ncnc(N[C@@H]3CC[C@@H](CO)OC3)c12", "target-desc": "CCRF-CEM leukemia", "result": "20.9 µM"}
{"compound": "COC(=O)N/N=C(/CC1(O)C(=O)Nc2ccc([N+](=O)[O-])cc21)c1ccccc1 (configuration not stated)", "target-desc": "CCRF-CEM leukemia", "result": "> 76.6 µM"}
{"compound": "COC(=O)[C@]1(C)CC[C@]2(C)CC[C@]3(C)C4[C@H]5Oc6c(cc7c(c6C)CCC6[C@@]7(C)CC[C@@]7(C)C8[C@](C)(CCC[C@@]8(C)C(=O)OC)CC[C@]67C)O[C@H]5c5c(cc6c(c5C)O[C@@]5(C)C7=CC=C8[C@@](C)(CC[C@@]9(C)[C@@H]%10C[C@](C)(C(=O)OC)CC[C@]%10(C)CC[C@]89C)C7=CC(=O)[C@@]5(O)O6)[C@]4(C)CC[C@@]3(C)C2C1 (some centres not stated)", "target-desc": "CCRF-CEM leukemia", "result": "4.9 µM"}
{"compound": "COc1ccc(C(c2ccc(OC)cc2)N2C(=O)CCC2C(=O)O)cc1 (configuration not stated)", "target-desc": "CCRF-CEM leukemia", "result": "> 100 µM"}
{"compound": "CCOc1ccccc1/C=C(/C#N)C(N)=O", "target-desc": "CCRF-CEM leukemia", "result": "73.7 µM"}
{"compound": "O=C1c2ccccc2C(=O)N1[C@@H](Cc1ccccc1)C(=O)n1cccc1CO", "target-desc": "CCRF-CEM leukemia", "result": "> 100 µM"}
{"compound": "CC1(C)C(=NNC(=S)NN)C(C)(C)C1=NNC(=S)NN", "target-desc": "CCRF-CEM leukemia", "result": "> 100 µM"}
{"compound": "CC(=O)O[C@H]1CC[C@@]2(C)C(=CC[C@@H]3C2CC[C@]2(C)Nc4c(cnn4-c4ccccc4)CC32)C1 (some centres not stated)", "target-desc": "CCRF-CEM leukemia", "result": "> 100 µM"}
{"compound": "CN(C)CCNC(=O)c1cccc2nc3c(ccc4ccccc43)nc12", "target-desc": "CCRF-CEM leukemia", "result": "4.68 µM"}
{"compound": "CCC(=O)OCC1OC(n2cnc3c(=S)nc(N)[nH]c32)C(OC(=O)CC)C1OC(=O)CC (configuration not stated)", "target-desc": "CCRF-CEM leukemia", "result": "28.2 µM"}
{"compound": "COC1=CC(=O)c2c(c(-c3csc(C)n3)cn2C)C1=O", "target-desc": "CCRF-CEM leukemia", "result": "> 94.4 µM"}
{"compound": "c1ccc(COC2NCCN2Cc2ccccc2)cc1 (configuration not stated)", "target-desc": "CCRF-CEM leukemia", "result": "> 100 µM"}
{"compound": "Cc1cccc(/C=N/NC(=S)Nc2ccc(Cl)cc2)n1", "target-desc": "CCRF-CEM leukemia", "result": "42.8 µM"}
{"compound": "COc1ccccc1N=NC(C(=O)c1ccccc1)C(=O)c1ccccc1", "target-desc": "CCRF-CEM leukemia", "result": "60 µM"}
{"compound": "O=c1[nH]c2cc([N+](=O)[O-])ccc2nc1/C(=N/Nc1ccccc1)C(O)c1ccc(Cl)cc1Cl (configuration not stated)", "target-desc": "CCRF-CEM leukemia", "result": "> 100 µM"}
{"compound": "C=CCOC1=C(OC(C)=O)C(=O)OC1C1COC(C)(C)O1 (configuration not stated)", "target-desc": "CCRF-CEM leukemia", "result": "> 60.4 µM"}
{"compound": "CC(C)(C)OC(=O)NCC(=O)NC1CC=CCC1NC(=O)CNC(=O)OC(C)(C)C (configuration not stated)", "target-desc": "CCRF-CEM leukemia", "result": "> 100 µM"}
{"compound": "CN(C)C1C(CO)OC(n2cnc3c(N)ncnc32)C1O (configuration not stated)", "target-desc": "CCRF-CEM leukemia", "result": "> 100 µM"}
{"compound": "CCCCCCCCCCCCCCCCOCC(Cl)CP(=O)(O)OP(=O)(O)OCC1OC(n2cnc3c(N)ncnc32)C(O)C1O (configuration not stated)", "target-desc": "CCRF-CEM leukemia", "result": "> 100 µM"}
{"compound": "NC(CCCCO)C(=O)O (configuration not stated)", "target-desc": "CCRF-CEM leukemia", "result": "> 100 µM"}
{"compound": "Cn1c([N+](=O)[O-])cnc1/C=C1\\Oc2ccc(Br)cc2C1=O", "target-desc": "CCRF-CEM leukemia", "result": "0.706 µM"}
{"compound": "Cc1cn(CC2=NCC(O)CN2)c(=O)[nH]c1=O (configuration not stated)", "target-desc": "CCRF-CEM leukemia", "result": "> 100 µM"}
{"compound": "CCCCCCCCNC(=O)SCCCC", "target-desc": "CCRF-CEM leukemia", "result": "69 µM"}
{"compound": "CN(C)c1ccc(C2C(Cl)C(=O)N2NC(=O)c2c(Cl)c(Cl)c(Cl)c(Cl)c2-c2nc3ccccc3[nH]2)cc1 (configuration not stated)", "target-desc": "CCRF-CEM leukemia", "result": "> 100 µM"}
{"compound": "CCOC(=O)c1c(NNc2ccccc2)nc2ccccc2c1-c1ccccc1", "target-desc": "CCRF-CEM leukemia", "result": "58.3 µM"}
{"compound": "O=C1NC(=O)/C(=C/c2ccc3ncccc3c2)S1", "target-desc": "CCRF-CEM leukemia", "result": "> 25 µM"}
{"compound": "C#CCCOC(=O)CC1=C(C)/C(=C/c2ccc(S(C)=O)cc2)c2ccc(F)cc21 (configuration not stated)", "target-desc": "CCRF-CEM leukemia", "result": "35 µM"}
